Measured Activity, listed per entry.
Test system: SAOS-2
Experiment: Antiproliferative activity against human SAOS-2 cells assessed as […] cell proliferation at 10 uM incubated for 48 hrs by WST-1 assay relative to control
Type: functional
Report the figure in % without appending any unit label.

CC(C)S(=O)(=O)c1ccc(-c2cc(-c3nnc(-c4ccccc4)o3)n[nH]2)cc1 : 98
CCN(CC)c1ccc(CNC(=O)c2c[nH]c3ncc(-c4ccc(S(=O)(=O)C(C)C)cc4)cc23)cc1 : 64
CS(=O)(=O)c1ccc(-c2cnc(N)c(C(=O)Nc3ccccc3)n2)cc1 : 66
CC(C)S(=O)(=O)c1ccc(-c2cnc3[nH]cc(C(=O)NCc4ccccc4)c3c2)cc1 : 83

What the record says about CC(C)S(=O)(=O)c1ccc(-c2cc(C(=O)Nc3ccc(N(C)C)cc3)n[nH]2)cc1 : Activity is 93
